The origin of these recorded values is ChEMBL document CHEMBL2434922.

Experiment: Cytotoxicity against mouse Daltons ascitic lymphoma cells assessed as dead cells at 100 ug/ml after 3 hrs by trypan blue exclusion assay relative to control
Type: functional
attribute measured: mortality at 100 µg/mL (%)

> print(dat)
                                 smiles.data      attribute.measured  reported.measurement
 1             CC(C)c1cc(O)n2c(n1)nc1ccccc12  mortality at 100 µg/mL                    57
 2                   O=c1[nH]cc(F)c(=O)[nH]1  mortality at 100 µg/mL                    88
 3  COc1ccc2oc(=O)cc(Cn3c4ccccc4n4c(=O)cc(C(F)(F)F)nc34)c2c1  mortality at 100 µg/mL                    58
 4    O=c1cc(-c2cccc(F)c2)nc2[nH]c3ccccc3n12  mortality at 100 µg/mL                    54
 5  Cc1cc(C)c2oc(=O)cc(Cn3c4ccccc4n4c(=O)cc(C(F)(F)F)nc34)c2c1  mortality at 100 µg/mL                    78
 6  CC(C)c1cc(=O)n2c3ccccc3n(Cc3cc(=O)oc4ccc(Cl)cc34)c2n1  mortality at 100 µg/mL                    88
 7   O=c1cc(-c2cccc(Cl)c2)nc2[nH]c3ccccc3n12  mortality at 100 µg/mL                    71
 8  Cc1ccc2oc(=O)cc(Cn3c4ccccc4n4c(=O)cc(C(F)(F)F)nc34)c2c1  mortality at 100 µg/mL                    69
 9  COc1ccc2oc(=O)cc(Cn3c4ccccc4n4c(=O)cc(C(C)C)nc34)c2c1  mortality at 100 µg/mL                    62
10        O=c1cc(C(F)(F)F)nc2[nH]c3ccccc3n12  mortality at 100 µg/mL                    80

###

System: Fusarium oxysporum
Assay: Antifungal activity against Fusarium oxysporum assessed as growth inhibition after 48 to 72 hrs by broth microdilution method
Type: functional
MIC: recorded values
attribute measured: MIC (µg/mL)

> print(dat)
                                 smiles.data  attribute.measured  reported.measurement
 1  O=c1cc(-c2ccc(C(F)(F)F)cc2)nc2[nH]c3ccccc3n12                 MIC                   0.2
 2  Cc1ccc2oc(=O)cc(Cn3c4ccccc4n4c(=O)cc(C(F)(F)F)nc34)c2c1                 MIC                   0.2
 3  CC(C)c1cc(=O)n2c3ccccc3n(Cc3cc(=O)oc4ccc(F)cc34)c2n1                 MIC                   0.2
 4           Oc1cc(-c2ccccc2)nc2nc3ccccc3n12                 MIC                   0.2
 5        O=c1cc(C(F)(F)F)nc2[nH]c3ccccc3n12                 MIC                   0.2
 6  COc1ccc2oc(=O)cc(Cn3c4ccccc4n4c(=O)cc(C(F)(F)F)nc34)c2c1                 MIC                   0.2
 7  CC(C)c1cc(=O)n2c3ccccc3n(Cc3cc(=O)oc4ccc(Cl)cc34)c2n1                 MIC                   0.2
 8        OC(Cn1cncn1)(Cn1cncn1)c1ccc(F)cc1F                 MIC                     8
 9  COc1ccc2oc(=O)cc(Cn3c4ccccc4n4c(=O)cc(C(C)C)nc34)c2c1                 MIC                   0.2
10    O=c1cc(-c2cccc(F)c2)nc2[nH]c3ccccc3n12                 MIC                   0.4
11    O=c1cc(-c2ccc(F)cc2)nc2[nH]c3ccccc3n12                 MIC                   0.4
12   O=c1cc(-c2cccc(Cl)c2)nc2[nH]c3ccccc3n12                 MIC                   0.2
13  Cc1cc(C)c2oc(=O)cc(Cn3c4ccccc4n4c(=O)cc(C(F)(F)F)nc34)c2c1                 MIC                   0.2
14  O=c1cc(Cn2c3ccccc3n3c(=O)cc(C(F)(F)F)nc23)c2cc(F)ccc2o1                 MIC                   0.2
15             CC(C)c1cc(O)n2c(n1)nc1ccccc12                 MIC                   0.4
16  COc1ccc(-c2cc(=O)n3c(n2)[nH]c2ccccc23)cc1                 MIC                   0.2
17  CC(C)c1cc(=O)n2c3ccccc3n(Cc3cc(=O)oc4ccc(Br)cc34)c2n1                 MIC                   0.2
